MEASUREMENT DESCRIPTION: Permeability of the compound at pH 7.4 by PAMPA
Format: physicochemical
CONDITION SET: read-out: permeability
PARAMETER MEASURED: Papp (×10⁻⁶ cm/s)
Lab book: enter the figure in ×10⁻⁶ cm/s, no units written.

# input Query: Papp; subject: `CN(C)[C@@H](C(=O)N1CCC[C@H]1c1ncc(-c2ccc(-c3ccc(-c4cnc([C@@H]5CCCN5C(=O)[C@@H](c5ccccc5)N(C)C)[nH]4)cc3)cc2)[nH]1)c1ccccc1`
# output 0.7

* * *

Tested on: Hepatitis C virus
MEASUREMENT DESCRIPTION: Antiviral activity against Hepatitis C virus genotype 4a infected in human HuH7 cells by FRET assay
Type: functional, organism-based, Hepacivirus hominis
CONDITION SET: Huh-7
PARAMETER MEASURED: EC50 (pM)
Report the value in pM with no unit label.

MOLECULE | EC50 (pM)
CN(C)[C@@H](C(=O)N1CCC[C@H]1c1ncc(-c2ccc(-c3ccc(-c4cnc([C@@H]5CCCN5C(=O)[C@@H](c5ccccc5)N(C)C)[nH]4)cc3)cc2)[nH]1)c1ccccc1 | 13

Now let's try a different one.
# input Fill in: EC50 of `COC(=O)N[C@@H](C(=O)N1CCC[C@H]1c1ncc(-c2ccc(-c3ccc(-c4cnc([C@@H]5CCCN5C(=O)[C@H](NC(=O)OC)c5ccccc5)[nH]4)cc3)cc2)[nH]1)c1ccccc1` is ___
# output 5.7

Values from ChEMBL document CHEMBL3124756
